Biological target: T1, human BASIGIN recombinant protein (human, UniProt P35613-2 22-205, limits assumed)
T1 construct: also called hBASIGIN
T1 sequence (looked up): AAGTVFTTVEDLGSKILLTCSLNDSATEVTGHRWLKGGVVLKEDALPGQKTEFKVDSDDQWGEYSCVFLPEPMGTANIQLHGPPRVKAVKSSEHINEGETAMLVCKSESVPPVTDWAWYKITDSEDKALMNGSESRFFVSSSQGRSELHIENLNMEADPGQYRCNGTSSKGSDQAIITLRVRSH
Experiment: SPR (ProteOn XPR36), human BASIGIN amine-coupled on chip, antibody as analyte
# kon >= 500000 M⁻¹ s⁻¹ gives MET, anything below gives NOT MET

// below: answered binders
binder	class name
humanized antibody HP6H8-2 (antibody, V domains shown, Derived from scFv clone 11245; also called WBP229-204; pCI-WBP229-204L/H) VH: EVQLVESGGGLVQPGGSLKLSCAASGFTFSNFWMNWVRQAPGKGLEWVAEIRLKSNNYATHYAESVKGRFTISRDDSKNTLYLQMNSLRTEDTAVYYCTSYDYEYWGQGTLVTVSA VL: DIQMTQSPASLSASVGDRVTISCKASENVGTYVSWYQQKPGQTPKLLIYGASNRYTGVPSRFSGSGSGTDFTLTISSLQPDDFATYYCGQSYSYPFTFGSGTKLEIK	MET
humanized antibody HP6H8-3 (antibody, V domains shown, Derived from scFv clone 11242; also called WBP229-203; pCI-WBP229-203L/H) VH: EVQLVESGGGLVQPGGSLKLSCAASGFTFSNFWMNWVRQAPGKGLEWVAEIRLKSNNYATHYAESVKGRFTISRDDSKNTLYLQMNSLKTEDTAVYYCTSYDYEYWGQGTLVTVSA VL: DIQMTQSPSSLSASVGDRVTLTCKASENVGTYVSWYQQKPGQAPKLLIYGASNRYTGVPSRFTGSGSGTDFTLTISSLQPDDFATYYCGQSYSYPFTFGSGTKLEIK	MET
humanized antibody HP6H8-1 (antibody, V domains shown, Derived from scFv clone 11305; also called WBP229-205; pCI-WBP229-205L/H) VH: EVQLVESGGGLVQPGGSLRLSCAASGFTFSNFWMNWVRQAPGKGLEWVSEIRLKSNNYATHYAESVKGRFTISRDDSKNTLYLQMNSLKTEDTAVYYCTSYDYEYWGQGTLVTVSA VL: DIQMTQSPSTLSASVGDRVTLSCKASENVGTYVSWYQQKPGKAPKLLIYGASNRYTGVPSRFTGSGSGTDFTLTISSLQPEDFATYYCGQSYSYPFTFGSGTKLEIK	MET
mouse monoclonal antibody HAb18GC2 (6H8) (antibody, V domains shown, Mouse monoclonal from hybridoma CCTCC-C200636; also called mouse 6H8; Mouse monoclonal 6H8) VH: EVKLEESGGGLVQPGGSMKLSCVASGFTFSNFWMNWVRQSPEKGLEWVAEIRLKSNNYATHYAESVKGRFTISRDDSKSSVYLQMNNLRTEDTGIYYCTSYDYEYWGQGTLVTVSA VL: NIVMTQSPKSMSMSVGERVTLSCKASENVGTYVSWYQQKPEQSPKLLIYGASNRYTGVPDRFTGSGSATDFTLTISSVQAEDLADYHCGQSYSYPFTFGSGTKLEIK	NOT MET

**Q:** Quick check: does chimeric antibody c6H8 (antibody, V domains shown, Mouse 6H8 variable regions fused to a human constant region of IgG1 isotype; also called chimeric 6H8) VH: EVKLEESGGGLVQPGGSMKLSCVASGFTFSNFWMNWVRQSPEKGLEWVAEIRLKSNNYATHYAESVKGRFTISRDDSKSSVYLQMNNLRTEDTGIYYCTSYDYEYWGQGTLVTVSA VL: NIVMTQSPKSMSMSVGERVTLSCKASENVGTYVSWYQQKPEQSPKLLIYGASNRYTGVPDRFTGSGSATDFTLTISSVQAEDLADYHCGQSYSYPFTFGSGTKLEIK have kon greater than or equal to 500000 M⁻¹ s⁻¹?
**A:** NOT MET
